Hey, just so you know, these numbers are from the supplement of paper PMC11061612.

# Test system: NB69 (Neuroblastoma)
# assay.comment: Bliss excess, mean over the matrix (fraction); higher = more synergy
metric.name: Bliss excess
Would you mind answering with just the numeric figure?

A selection of reference data follows.
C[C@@H]1COCCN1c1cc(C2([S@](C)(=N)=O)CC2)nc(-c2ccnc3[nH]ccc23)n1 [AZD6738] + O=C(c1cc(Cc2n[nH]c(=O)c3ccccc23)ccc1F)N1CCN(C(=O)C2CC2)CC1 [Olaparib] (first compound max 10 µM, 7x7, partner max 10 µM)	0.045
C[C@@H](Nc1cc(F)cc(F)c1)c1cc(C(=O)N(C)C)cc2c(=O)cc(N3CCOCC3)oc12 [AZD8186] + CC(=O)c1c(C)c2cnc(Nc3ccc(N4CCNCC4)cn3)nc2n(C2CCCC2)c1=O [Palbociclib] (first compound max 10 µM, 7x7, partner max 10 µM)	-0.0111
CC1(C)CCC(CN2CCN(c3ccc(C(=O)NS(=O)(=O)c4ccc(NCC5CCOCC5)c([N+](=O)[O-])c4)c(Oc4cnc5[nH]ccc5c4)c3)CC2)=C(c2ccc(Cl)cc2)C1 [Venetoclax] + Cc1cc2ncnn2cc1Nc1ncc2c(n1)n(C1CCOCC1)c(=O)n2C [AZD7648] (first compound max 1 µM, 7x7, partner max 10 µM)	0.0069

Let us examine a further case.
Prompt: Please tell me the measured Bliss excess for C=CCn1c(=O)c2cnc(Nc3ccc(N4CCN(C)CC4)cc3)nc2n1-c1cccc(C(C)(C)O)n1 [AZD1775] + Nc1ccn([C@@H]2O[C@H](CO)[C@@H](O)C2(F)F)c(=O)n1 [Gemcitabine] (first compound max 1 µM, partner max 0.3 µM) ; system: NB69 (Neuroblastoma).
Completion: 0.0419

---

# System: RF-48 (B-Cell Non-Hodgkin's Lymphoma)
# assay.comment: Bliss excess, mean over the matrix (fraction); higher = more synergy
# maps each entry to its Bliss excess

C=CCn1c(=O)c2cnc(Nc3ccc(N4CCN(C)CC4)cc3)nc2n1-c1cccc(C(C)(C)O)n1 [AZD1775] + O=C(c1cc(Cc2n[nH]c(=O)c3ccccc23)ccc1F)N1CCN(C(=O)C2CC2)CC1 [Olaparib] (first compound max 1 µM, partner max 10 µM)	0.0129

Prompt: Please tell me the measured Bliss excess for Cn1cnc2c(F)c(Nc3ccc(Br)cc3Cl)c(C(=O)NOCCO)cc21 [Selumetinib] + CC(C)n1c(=O)n(C)c2cnc3cc(F)c(-c4ccc(OCCCN5CCCCC5)nc4)cc3c21 [AZD1390] (first compound max 10 µM, 7x7, partner max 0.3 µM) ; system: RF-48 (B-Cell Non-Hodgkin's Lymphoma).
Completion: -0.056

---

# System: MLMA (Other Blood Carcinomas)
# assay.comment: combination Emax (second highest fraction inhibited in the dose matrix, 72 h); higher = more inhibition; extreme values may be limits of the assay
# maps each entry to its combination Emax
Would you mind answering with just the numeric figure?

Prompt: Please tell me the measured combination Emax for CN(CCO)CC[C@H](CSc1ccccc1)Nc1ccc(S(=O)(=O)NC(=O)c2ccc(N3CCC([C@@H](O)c4ccccc4-c4ccc(Cl)cc4)CC3)cc2)cc1S(=O)(=O)C(F)(F)F [AZD4320] + CS(=O)(=O)CCNCc1ccc(-c2ccc3ncnc(Nc4ccc(OCc5cccc(F)c5)c(Cl)c4)c3c2)o1 [Lapatinib] (first compound max 1 µM, 7x7, partner max 10 µM) ; system: MLMA (Other Blood Carcinomas).
Completion: 0.497

Prompt: Please tell me the measured combination Emax for Cc1c2c(nn1C)CSCc1cc(n(C)n1)CSc1cc(c3ccccc3c1)OCCCc1c(C(=O)O)n(C)c3c-2c(Cl)ccc13 [AZD5991] + CC1(C)CCC(CN2CCN(c3ccc(C(=O)NS(=O)(=O)c4ccc(NCC5CCOCC5)c([N+](=O)[O-])c4)c(Oc4cnc5[nH]ccc5c4)c3)CC2)=C(c2ccc(Cl)cc2)C1 [Venetoclax] (first compound max 1 µM, 7x7, partner max 1 µM) ; system: MLMA (Other Blood Carcinomas).
Completion: 0.248

Prompt: Please tell me the measured combination Emax for N#Cc1cnc(Nc2cc(NC[C@H]3CNCCO3)c(C(F)(F)F)cn2)cn1 [SRA737] + C=CCn1c(=O)c2cnc(Nc3ccc(N4CCN(C)CC4)cc3)nc2n1-c1cccc(C(C)(C)O)n1 [AZD1775] (first compound max 10 µM, partner max 1 µM) ; system: MLMA (Other Blood Carcinomas).
Completion: 0.826

Prompt: Please tell me the measured combination Emax for COc1cccc(OCCCN)c1-c1cc(Nc2cnc(C#N)cn2)n[nH]1 [Prexasertib] + Cc1cc2ncnn2cc1Nc1ncc2c(n1)n(C1CCOCC1)c(=O)n2C [AZD7648] (first compound max 1 µM, 7x7, partner max 10 µM) ; system: MLMA (Other Blood Carcinomas).
Completion: 0.96

---

# System: D-263MG (Glioblastoma)
# assay.comment: combination Emax (second highest fraction inhibited in the dose matrix, 72 h); higher = more inhibition; extreme values may be limits of the assay
# maps each entry to its combination Emax
Would you mind answering with just the numeric figure?

Prompt: Using the record for CN(CCO)CC[C@H](CSc1ccccc1)Nc1ccc(S(=O)(=O)NC(=O)c2ccc(N3CCC([C@@H](O)c4ccccc4-c4ccc(Cl)cc4)CC3)cc2)cc1S(=O)(=O)C(F)(F)F [AZD4320] + CC(=O)O[C@H]1C(=O)[C@@]2(C)[C@H]([C@H](OC(=O)c3ccccc3)[C@]3(O)C[C@H](OC(=O)[C@H](O)[C@@H](NC(=O)c4ccccc4)c4ccccc4)C(C)=C1C3(C)C)[C@]1(OC(C)=O)CO[C@@H]1C[C@@H]2O [Paclitaxel] (first compound max 1 µM, 7x7, partner max 3 µM) , state its measured combination Emax.
Completion: 0.95

Prompt: Using the record for CC1(C)CCC(CN2CCN(c3ccc(C(=O)NS(=O)(=O)c4ccc(NCC5CCOCC5)c([N+](=O)[O-])c4)c(Oc4cnc5[nH]ccc5c4)c3)CC2)=C(c2ccc(Cl)cc2)C1 [Venetoclax] + COc1cc(Nc2ncc3c(n2)-c2ccc(Cl)cc2C(c2c(F)cccc2OC)=NC3)ccc1C(=O)O [Alisertib] (first compound max 1 µM, 7x7, partner max 10 µM) , state its measured combination Emax.
Completion: 0.518

Prompt: Using the record for Cc1nc(-c2cn3c(n2)-c2ccc(-c4cnn(C(C)(C)C(N)=O)c4)cc2OCC3)n(C(C)C)n1 [Taselisib] + O=C(Nc1ccc2[nH]nc(-c3ccncc3)c2c1)[C@@H]1CCN(CC(=O)N2CCN(c3ccc(-c4ncccn4)cc3)CC2)C1 [SCH772984] (first compound max 10 µM, 7x7, partner max 5 µM) , state its measured combination Emax.
Completion: 0.892

---

# System: SU8686 (Pancreatic Carcinoma)
# assay.comment: combination Emax (second highest fraction inhibited in the dose matrix, 72 h); higher = more inhibition; extreme values may be limits of the assay
Decide by combination Emax: equal to or exceeding 0.08 means rule met, less means rule not met.

CN(CCO)CC[C@H](CSc1ccccc1)Nc1ccc(S(=O)(=O)NC(=O)c2ccc(N3CCC([C@@H](O)c4ccccc4-c4ccc(Cl)cc4)CC3)cc2)cc1S(=O)(=O)C(F)(F)F [AZD4320] + CN(C)CCCOc1ccc(-c2ccc3ncc4c(c3c2)n(C2CCOCC2)c(=O)n4C)cn1 [AZD0156] (first compound max 1 µM, 7x7, partner max 1 µM)	rule not met

Prompt: Textbook exercise: given the entry CN(CCO)CC[C@H](CSc1ccccc1)Nc1ccc(S(=O)(=O)NC(=O)c2ccc(N3CCC([C@@H](O)c4ccccc4-c4ccc(Cl)cc4)CC3)cc2)cc1S(=O)(=O)C(F)(F)F [AZD4320] + C=CCn1c(=O)c2cnc(Nc3ccc(N4CCN(C)CC4)cc3)nc2n1-c1cccc(C(C)(C)O)n1 [AZD1775] (first compound max 1 µM, partner max 1 µM) , state whether its combination Emax is greater than or equal to 0.08.
Completion: rule met

Prompt: Textbook exercise: given the entry CC(=O)c1c(C)c2cnc(Nc3ccc(N4CCNCC4)cn3)nc2n(C2CCCC2)c1=O [Palbociclib] + CN(CC[C@H](CSC1=CC=CC=C1)NC2=C(C=C(C=C2)S(=O)(=O)NC(=O)C3=CC=C(C=C3)N4CCC(CC4)[C@H](C5=CC=CC=C5C6=CC=C(C=C6)Cl)O)S(=O)(=O)C(F)(F)F)CCO [AZD4320] (first compound max 10 µM, 7x7, partner max 1 µM) , state whether its combination Emax is greater than or equal to 0.08.
Completion: rule not met

Prompt: Textbook exercise: given the entry CC1(C)CCC(CN2CCN(c3ccc(C(=O)NS(=O)(=O)c4ccc(NCC5CCOCC5)c([N+](=O)[O-])c4)c(Oc4cnc5[nH]ccc5c4)c3)CC2)=C(c2ccc(Cl)cc2)C1 [Venetoclax] + Cn1cnc2c(F)c(Nc3ccc(Br)cc3Cl)c(C(=O)NOCCO)cc21 [Selumetinib] (first compound max 1 µM, 7x7, partner max 3 µM) , state whether its combination Emax is greater than or equal to 0.08.
Completion: rule met

Prompt: Textbook exercise: given the entry Cn1cnc2c(F)c(Nc3ccc(Br)cc3Cl)c(C(=O)NOCCO)cc21 [Selumetinib] + CC(C)n1c(=O)n(C)c2cnc3cc(F)c(-c4ccc(OCCCN5CCCCC5)nc4)cc3c21 [AZD1390] (first compound max 10 µM, 7x7, partner max 0.3 µM) , state whether its combination Emax is greater than or equal to 0.08.
Completion: rule met
